Listing of entries alongside the reported Oat, Wild plant response rating.
Tested on: wild oat
protocol notes: Test B postemergence herbicide test
Format: in vivo, Avena fatua
conditions used: postemergence, 125 g ai/ha; scale 0 to 100
reported property: Oat, Wild plant response rating

- item smiles: "CCc1nn(C(C)(C)C)nc1C(=O)Nc1cccc(C(=O)N2CCCCC2)c1"
  value measured: 30
- item smiles: "Cc1nn(C(C)(C)C)nc1C(=O)Nc1cncc(C(=O)N(C)C)c1"
  value measured: 0
- item smiles: "C=CCN(CC=C)C(=O)c1cccc(NC(=O)c2nn(C(C)(C)C)nc2C)n1"
  value measured: 0
- item smiles: "C#CCOc1cccc(NC(=O)c2cc(C(C)(C)C)nn2CC)c1"
  value measured: 40
- item smiles: "CCc1nn(C(C)(C)C)nc1C(=O)Nc1cccc(C(=O)NC2CC2)c1"
  value measured: 10

* * *

Test system: green foxtail
protocol notes: Test C postemergence herbicide test
Format: in vivo, Setaria viridis
conditions used: postemergence; 62 g ai/ha; scale 0 to 100

- item smiles: "CCn1nc(C(C)(C)C)cc1C(=O)Nc1cccc(OC(F)(F)C(F)F)c1"
  Plant response rating, Foxtail, Green: 30
- item smiles: "CCOC(=O)c1ccc(F)c(NC(=O)c2cc(C3(C)CC3)nn2CC)c1"
  Plant response rating, Foxtail, Green: 40
- item smiles: "CCn1nc(C2(C)CC2)cc1C(=O)Nc1cccc(C(=O)N2CC=CC2)c1"
  Plant response rating, Foxtail, Green: 40
- item smiles: "CCNC(=O)c1cccc(NC(=O)c2nn(C(C)(C)CC)nc2CC)c1"
  Plant response rating, Foxtail, Green: 40
- item smiles: "C#CCNC(=O)c1cccc(NC(=O)c2nn(C(C)(C)C)nc2CC)c1"
  Plant response rating, Foxtail, Green: 60

* * *

Below, each of the compounds is paired with its reported Oat, Wild plant response rating value.
Tested on: wild oat
protocol notes: Test B postemergence herbicide test
Format: in vivo, Avena fatua
conditions used: postemergence, 125 g ai/ha; visual rating, scale 0 (no effect) to 100 (complete control)

- compound: "Cc1nc(C(C)(C)C)sc1C(=O)Nc1cccc(C(=O)NCC(F)(F)F)c1 [Compound 201]"
  Oat, Wild plant response rating: 10
- compound: "C=CCNC(=O)c1cccc(NC(=O)c2sc(C(C)(C)C)nc2C)c1 [Compound 202]"
  Oat, Wild plant response rating: 10
- compound: "CCn1nc(C(C)(C)C)cc1C(=O)Nc1ccc(F)c(C(=O)NCCF)c1 [Compound 60]"
  Oat, Wild plant response rating: 20
- compound: "CCn1nc(C(C)(C)C)cc1C(=O)Nc1cc(C#N)ccc1F [Compound 140]"
  Oat, Wild plant response rating: 0
- compound: "CCCc1nn(C(C)(C)C)cc1C(=O)Nc1cccc(C(=O)N(CC)CC)c1 [Compound 185]"
  Oat, Wild plant response rating: 10
- compound: "CCN(CC)C(=O)c1cccc(NC(=O)c2cn(C(C)(C)C)nc2C)c1 [Compound 184]"
  Oat, Wild plant response rating: 20
- compound: "CCc1nn(C(C)(C)C)cc1C(=O)Nc1cc(C(=O)NC)ccc1F [Compound 194]"
  Oat, Wild plant response rating: 0
- compound: "CCn1nc(C(C)(C)C)cc1C(=O)Nc1cccc(C(=O)N(C)CC#N)n1 [Compound 158]"
  Oat, Wild plant response rating: 30
- compound: "CCn1nc(C(C)(C)C)cc1C(=O)Nc1cccc(S(C)(=O)=O)c1 [Compound 133]"
  Oat, Wild plant response rating: 20
